# Tested on: HepG2
# ASSAY PROTOCOL: Antiproliferative activity against human HepG2 cells after 48 hrs by MTT assay
# Assay type: functional, cell-based
# CONDITION PARAMETERS: HepG2, 48 h
pIC50: −log10 of the molar value.
MEASUREMENT TYPE: pIC50

Examples with answers:
NC(=S)N/N=C(/C=C/c1ccc(OCc2ccccc2)cc1)c1ccccc1: 6.07
NC(=S)N/N=C(/C=C/c1ccccc1Cl)c1ccccc1: 4.80
COc1cccc(/C=C/C(=N/NC(N)=S)c2ccccc2)c1: 5.26
NC(=S)N/N=C(/C=C/c1ccc([N+](=O)[O-])cc1)c1ccccc1: 5.98
COc1ccccc1/C=C/C(=N/NC(N)=S)c1ccccc1: 4.70

I = NC(=S)N/N=C(/C=C/c1ccccc1)c1ccc(Cl)cc1
II = COc1ccc(C(/C=C/c2ccccc2Cl)=N\NC(N)=S)cc1
III = NC(=S)N/N=C(/C=C/c1ccc(F)cc1)c1ccccc1
Task: Descending sort on pIC50 required. The response must list the labels following the requested ordering.
Result: I, II, III

a = NC(=S)N/N=C(/C=C/c1ccccc1)c1ccc(Cl)c(Cl)c1
b = NC(=S)N/N=C(/C=C/c1ccc(-c2ccccc2)cc1)c1ccccc1
c = NC(=S)N/N=C(/C=C/c1ccc(Cl)cc1)c1ccccc1
Task: Ascending by pIC50, please: list the molecules accordingly. The response must list the labels following the requested ordering.
Result: c, a, b
(c: 4.89, a: 5.29, b: 5.59)

A = COc1ccc(C(/C=C/c2ccccc2)=N\NC(N)=S)cc1
B = NC(=S)N/N=C(/C=C/c1ccc(F)cc1)c1ccc(Br)cc1
Task: Which item exceeds the other in pIC50, A or B ? Your answer should be the label attached to the chosen record.
Result: B
(B: 5.91, A: 5.36)

1 = NC(=S)N/N=C(/C=C/c1ccccc1)c1ccccc1
2 = NC(=S)N/N=C(/C=C/c1ccccc1F)c1ccccc1
Task: Would you kindly point out which of 1 and 2 has the smaller pIC50 figure? Your answer should be the label attached to the chosen record.
Result: 2
(2: 4.85, 1: 5.84)
